B1: Pistol ribozyme (parent)
chain: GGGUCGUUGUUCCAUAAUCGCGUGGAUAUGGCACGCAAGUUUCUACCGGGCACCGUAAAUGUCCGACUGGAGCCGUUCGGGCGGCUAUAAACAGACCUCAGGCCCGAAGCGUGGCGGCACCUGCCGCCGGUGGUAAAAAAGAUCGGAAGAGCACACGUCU

variants of: B1; assay: aptazyme ON/OFF ratio, guanine; higher = stronger switching; co-transcriptional cleavage with and without guanine
Provide the recorded aptazyme ON/OFF ratio for the entries that follow.
Could you keep your reply to the number by itself?

Enquiry: Could you share which aptazyme ON/OFF ratio value was measured for U7C U8G G9A U10C U11C C12A C13A ?
Return: 1.03

Enquiry: Dear colleague, I am looking for the recorded aptazyme ON/OFF ratio of the following variant: U8A G9U U10A U11G C12U
Return: 1.37

Enquiry: Which aptazyme ON/OFF ratio is listed for U7A U10G U11A C13G ?
Return: 1.09

Enquiry: Could you tell me which aptazyme ON/OFF ratio is on file for U7C U8G G9A U10A U11A C12G C13A ?
Return: 1.12

Enquiry: Using the record for U7A U8G G9A C12G C13G , report its aptazyme ON/OFF ratio.
Return: 1.81

Enquiry: Which measured aptazyme ON/OFF ratio value corresponds to U7C U8A G9C U11G C12A C13U ?
Return: 1.15

Enquiry: Any idea what aptazyme ON/OFF ratio was measured for U8A G9U U10C U11C C12G C13U ?
Return: 1.02

Enquiry: Give the measured aptazyme ON/OFF ratio of U7A U8C G9A U10C U11A C12U C13A .
Return: 1.12

Enquiry: Query: aptazyme ON/OFF ratio; subject: U8C U10A U11C C12U C13A
Return: 1.06

Enquiry: For U7C U8A G9C U10A C12G C13U , what is its reported aptazyme ON/OFF ratio?
Return: 1.26

Enquiry: I'd like to know its aptazyme ON/OFF ratio. The variant in question is U7A U8A U10G U11A C12G C13U
Return: 1.51

Enquiry: What measured aptazyme ON/OFF ratio goes with U7C U8C G9C U10G U11A C12U C13A ?
Return: 1.07

Enquiry: Can you share its aptazyme ON/OFF ratio? I mean this variant: U7A U8A G9U U10A U11G C12U C13A
Return: 1.25

Enquiry: Can you look up the measured aptazyme ON/OFF ratio of U8G G9C U10C U11A C12G C13U for me?
Return: 1.11

Enquiry: For the variant U8C G9A U11G C12A C13A , what aptazyme ON/OFF ratio is on record?
Return: 1.22

Enquiry: For the variant U8G G9C C12G C13A , what aptazyme ON/OFF ratio is on record?
Return: 1.05

Enquiry: Would you kindly share the measured aptazyme ON/OFF ratio for U7A U8G U10C U11A C12A C13U ?
Return: 1.37

Enquiry: Recorded aptazyme ON/OFF ratio of U11A C13G , please.
Return: 1.12

Enquiry: Would you mind telling me what aptazyme ON/OFF ratio value was observed for U7C U8A G9A U10G U11G C12U C13A ?
Return: 1.11

Enquiry: # get_value(readout='aptazyme ON/OFF ratio', item= U7C U8A G9C C13U )
Return: 1.05

Enquiry: Quick check: aptazyme ON/OFF ratio of U7A G9U U10A U11G C12U C13U ?
Return: 1.22

Enquiry: What does the data say about its aptazyme ON/OFF ratio? Entry: U7C U8C G9U U10A C12G C13A
Return: 1.16

The measurements presented in this section are drawn from the RNAGym collection of RNA variant scans (doi:10.1021/acssynbio.7b00057).
